Collected log10 Ki values appear next to each entry.
Molecular target: Carbonic anhydrase 5A, mitochondrial (Homo sapiens)
Sequence (P35218 whole entry): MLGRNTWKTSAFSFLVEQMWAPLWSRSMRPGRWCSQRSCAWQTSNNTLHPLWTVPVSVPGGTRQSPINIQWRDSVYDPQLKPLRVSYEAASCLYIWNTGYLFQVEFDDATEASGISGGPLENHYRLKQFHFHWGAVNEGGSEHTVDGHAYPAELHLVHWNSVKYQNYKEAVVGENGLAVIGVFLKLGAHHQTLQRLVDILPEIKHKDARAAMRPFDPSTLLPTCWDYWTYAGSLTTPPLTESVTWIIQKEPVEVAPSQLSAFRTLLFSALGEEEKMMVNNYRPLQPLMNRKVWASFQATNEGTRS
Experiment: Binding affinity towards recombinant human mitochondrial carbonic anhydrase V
Scale: log10; quantity: Ki; unit before log: µM

Would you please look over these solved cases?
Compound | Reported
O=C(O)P(=O)(O)O | 4.62
N[C@@H](COP(=O)(O)O)C(=O)O | 2.56
O=C(O)C[C@H](NC(=O)CP(=O)(O)O)C(=O)O | 2.57
O=P(O)(O)CP(=O)(O)O | 2.86
O=P(O)(O)c1ccccc1 | 1.95

API: the following record is the query input.
Lookup result for CC(OP(=O)(O)O)C(N)C(=O)O (stereo unspecified) ; measured log10 Ki: 2.93

###

Biological target: Carbonic anhydrase 1 (Homo sapiens) (UniProt P00915)
Sequence (P00915 2-261 limits assumed): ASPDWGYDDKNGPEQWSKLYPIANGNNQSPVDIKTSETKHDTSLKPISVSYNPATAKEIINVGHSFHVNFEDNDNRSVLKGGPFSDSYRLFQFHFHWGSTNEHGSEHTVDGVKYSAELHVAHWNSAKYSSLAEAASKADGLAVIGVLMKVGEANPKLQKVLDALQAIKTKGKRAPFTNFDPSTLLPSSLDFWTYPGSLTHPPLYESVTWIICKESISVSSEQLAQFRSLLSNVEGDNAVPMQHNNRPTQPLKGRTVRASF
Assay: Activation constant towards human cytosolic carbonic anhydrase I; Activator
In this section we review reported log10 KA values for a set of compounds.
In our notation, the value equals log10 of KA in mM.

Compound | Reported
N[C@@H](COP(=O)(O)O)C(=O)O | -1.00
O=C(O)C[C@H](NC(=O)CP(=O)(O)O)C(=O)O | -1.00
O=P(O)(O)CP(=O)(O)O | -0.70
O=C(O)P(=O)(O)O | -1.92
CC(OP(=O)(O)O)C(N)C(=O)O (stereo unspecified) | -0.30

Field: next compound
The compound "O=P(O)(O)c1ccccc1" , when measured on Carbonic anhydrase 1 (Homo sapiens) (UniProt P00915), yielded log10 KA of -4.00

###

Target: Carbonic anhydrase 2 (Homo sapiens)
pKi: −log10 of the molar value.
Label rule, in plain words: pKi of 3 and up is true, under 3 is false.

Compound | Target | Discrete Label
N[C@@H](COP(=O)(O)O)C(=O)O | Carbonic anhydrase 2 (Homo sapiens) | true
O=C(O)C[C@H](NC(=O)CP(=O)(O)O)C(=O)O | Carbonic anhydrase 2 (Homo sapiens) | true
O=P(O)(O)CP(=O)(O)O | Carbonic anhydrase 2 (Homo sapiens) | false

Now take the following molecule into account.
Check the entry "O=P(O)(O)c1ccccc1" : does pKi equal or exceed 3? true

###

Measurement record for Carbonic anhydrase 4 (Homo sapiens, UniProt P22748); quantity recorded: Ki.

Compound | Observable | Reported
N[C@@H](COP(=O)(O)O)C(=O)O | Ki | 4.26 mM
O=C(O)C[C@H](NC(=O)CP(=O)(O)O)C(=O)O | Ki | 7.9e-05 mM
CC(OP(=O)(O)O)C(N)C(=O)O (stereo not given) | Ki | 3.18 mM
O=P(O)(O)CP(=O)(O)O | Ki | 5.34 mM

Read the next record carefully.
The compound identified as "O=P(O)(O)c1ccccc1" registered its Ki at 0.0054 mM

###

Biological target: Carbonic anhydrase 9 (Homo sapiens)
Assay: Binding affinity owards recombinant human transmembrane carbonic anhydrase IX
Measured pKi, listed per entry for reference.
Please express pKi as -log10 of the molar concentration.

Param item: O=P(O)(O)CP(=O)(O)O [MEDRONIC ACID] ; param system: Carbonic anhydrase 9 (Homo sapiens); output pKi: 3.07

Observed pKi, Carbonic anhydrase 9 (Homo sapiens), O=P(O)(O)c1ccccc1 [PHENYLPHOSPHONIC ACID] : 2.66

Noted pKi for N[C@@H](COP(=O)(O)O)C(=O)O [DEXFOSFOSERINE] , tested on Carbonic anhydrase 9 (Homo sapiens): 3.04

Field pKi (Carbonic anhydrase 9 (Homo sapiens)), entry O=C(O)C[C@H](NC(=O)CP(=O)(O)O)C(=O)O [PALA] : 2.65

Summary: CC(OP(=O)(O)O)C(N)C(=O)O (stereo not given) , Carbonic anhydrase 9 (Homo sapiens), pKi = 2.91
